TGT: HLA-A*0202 (human)
PROTOCOL_DETAILS: competition with 125I probe peptide for purified HLA
pIC50: −log10 of the molar value. Where no end group is shown, it is not given here. [ ]: non-standard residue; d: D form. Abu = CC[C@H](N)C(=O)O
The label depends only on pIC50: 1 if it is at least 6, -1 if it is smaller.

Consider the following illustrative entries.
> print(dat)
                                     binder  assigned.category
1  ALCRWGLLLA [Her2/neu.5 (10-mer) ALCRWGLLLA]                 -1
2  AM[Abu]RWGLLV [Her2/neu.5M2B3V9 AMBRWGLLV]                  1
3  AT[Abu]RWGLLV [Her2/neu.5.T2B3V9 ATBRWGLLV]                  1

Lab note: next binder to report on.
Is pIC50 at least 6? Consider AV[Abu]RWGLLV [Her2/neu.5V2B3V9 AVBRWGLLV]
1
